Target: Cytochrome P450 2C19 (Homo sapiens)
Assay: Cytochrome panel assay with activity outcomes
Settings: recombinant CYP, pro-luciferin dealkylation, luminescence, p450-cyp2c19; series mostly up to 57.1 µM
Out of some 16,000 compounds screened, about 5,800 (36%) were called active. Roughly 23% stayed inconclusive and do not appear here. Calls come from the whole dose curve; as a rule, active = well fitted curve in the direction sought with a large enough effect; inconclusive = small, poorly fitted or top-dose-only effect, or effect the other way; inactive = no such curve, though single readings can be large or run the other way. This is one part of the list.
Labels: true (1) for active, false (0) for inactive

> print(dat)
                                    compound  label.value
 1                        C=CCSc1ccsc1C(=O)O    false (0)
 2  O=C(NC1CCCC1)C(c1ccsc1)N(Cc1ccccc1)C(=O)Cc1cccs1 (stereo unspecified)     true (1)
 3  COc1ccc(CNC(=O)C(c2ccc(C)cc2)N(Cc2cccs2)C(=O)c2ccc3c(c2)OCCO3)cc1 (stereo unspecified)     true (1)
 4  Nc1nc(SCc2ccc([N+](=O)[O-])cc2)c2ncn([C@@H]3O[C@@H](CO)[C@@H](O)[C@H]3O)c2n1    false (0)
 5     Cc1ccc(C(=O)NC(=S)NCC(=O)c2ccccc2)cc1    false (0)
 6  CO/N=C(\C(=O)N[C@@H]1C(=O)N2C(C(=O)O)=C(COC(N)=O)CS[C@@H]12)c1ccco1    false (0)
 7      c1cncc(CNc2ncnc3ccc(-c4ccoc4)cc23)c1     true (1)
 8            COCCNc1cc(-c2ccccc2CN(C)C)ncn1    false (0)
 9  COC(=O)CSc1nnc(CNc2ccc(Cl)cc2)n1-c1ccccc1     true (1)
10    COc1ccc2nc(NCN3C(=O)c4ccccc4C3=O)sc2c1     true (1)
11           COCCNC(=O)c1cc2c3ccccc3n(C)c2s1     true (1)
12  CCOc1ccc(NCc2nnc(SCc3ccccc3Cl)n2-c2ccccc2)cc1     true (1)
13        COC(=O)N1CCC2(CC1)CCN(c1ncccn1)CC2    false (0)
14    O=C(/C=C/Nc1ccccc1)c1ccc(Oc2ncccn2)cc1     true (1)
15     CCOC(=O)CSc1ncc(OC)c(Sc2ccc(Cl)cc2)n1     true (1)
16  CCN(CCCNC(=O)CC(C(=O)N1CCc2ccccc21)n1ccnc1)c1ccccc1 (stereo unspecified)     true (1)

====

Target: Cytochrome P450 2C19 (Homo sapiens) (UniProt P33261)
Sequence (P33261 whole entry, looked up): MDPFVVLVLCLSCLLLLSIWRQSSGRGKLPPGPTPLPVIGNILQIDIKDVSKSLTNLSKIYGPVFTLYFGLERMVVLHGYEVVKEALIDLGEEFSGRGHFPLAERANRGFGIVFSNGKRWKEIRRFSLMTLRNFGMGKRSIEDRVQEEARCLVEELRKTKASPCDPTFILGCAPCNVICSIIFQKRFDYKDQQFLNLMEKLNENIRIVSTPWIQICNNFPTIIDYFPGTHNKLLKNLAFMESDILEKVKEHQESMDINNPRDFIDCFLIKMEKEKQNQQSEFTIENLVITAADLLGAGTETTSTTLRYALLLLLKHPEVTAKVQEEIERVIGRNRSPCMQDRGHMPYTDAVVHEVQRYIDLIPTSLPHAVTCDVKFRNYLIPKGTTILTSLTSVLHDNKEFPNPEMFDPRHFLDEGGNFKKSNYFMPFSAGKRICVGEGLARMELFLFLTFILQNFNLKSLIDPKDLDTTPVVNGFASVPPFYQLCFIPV
Assay: Cytochrome panel assay with activity outcomes
Conditions: recombinant CYP, pro-luciferin dealkylation, luminescence, p450-cyp2c19; series mostly up to 57.1 µM
Hit rate of the full screen: of about 16,000 compounds, about 5,800 (36%) were called active. Roughly 23% stayed inconclusive and do not appear here. The call rests on the fitted dose curve; in most records, active means well fitted curve in the direction sought with a large enough effect; inconclusive means small, poorly fitted or top-dose-only effect, or effect the other way; inactive means no such curve, though single readings can be large or run the other way. Some of the results follow.
Labels: active, inactive

> print(dat)
                                smiles.repr  label.value
1   O=C(c1csnn1)N1CCC2(CC1)CCN(c1ccccn1)CC2     inactive
2  O=C(c1ccccc1)c1ccc2nc(-c3ccc(NC(=O)c4ccccc4Br)cc3)[nH]c2c1       active
3  COC(=O)c1ccc(Oc2nc(N(C)C)nc(N3CCOCC3)n2)cc1       active
4  COc1ccc(-n2c(=O)cnc3cnc(N4CCNCC4)nc32)cc1     inactive

====

Molecular target: Cytochrome P450 2C19 (Homo sapiens)
Experiment: Cytochrome panel assay with activity outcomes
Details: recombinant CYP, pro-luciferin dealkylation, luminescence, p450-cyp2c19; series mostly up to 57.1 µM
Among all 16,000 compounds or so, about 5,800 (36%) were called active. Roughly 23% stayed inconclusive and do not appear here. Calls follow the shape of the dose curve; as a rule, active = well fitted curve in the direction sought with a large enough effect; inconclusive = small, poorly fitted or top-dose-only effect, or effect the other way; inactive = no such curve, though single readings can be large or run the other way. The list shows a part of the results.
Labels: active, inactive

> print(dat)
                                    molecule                      subject.of.test  label.value
 1              CC(=O)c1[nH]c(C)c(C(C)=O)c1C  Cytochrome P450 2C19 (Homo sapiens)     inactive
 2                O=C(CCc1ccccc1)Nc1ncn[nH]1  Cytochrome P450 2C19 (Homo sapiens)     inactive
 3  CCCSc1nc(NCc2ccco2)c2c3c(sc2n1)COC(C)(C)C3  Cytochrome P450 2C19 (Homo sapiens)       active
 4              Cn1c(=O)c2c(ncn2CCO)n(C)c1=O  Cytochrome P450 2C19 (Homo sapiens)     inactive
 5  Cc1ccc(S(=O)(=O)N(CCCN2CCCC2=O)Cc2cc3c(C)ccc(C)c3[nH]c2=O)cc1  Cytochrome P450 2C19 (Homo sapiens)       active
 6          Cc1ccc(S(=O)(=O)NCCSc2nnnn2C)cc1  Cytochrome P450 2C19 (Homo sapiens)       active
 7     Cn1c(=O)c2c(ncn2C[C@@H](O)CO)n(C)c1=O  Cytochrome P450 2C19 (Homo sapiens)     inactive
 8          C[N+](C)(C)CCCCCCCCCC[N+](C)(C)C  Cytochrome P450 2C19 (Homo sapiens)     inactive
 9           Clc1cccc(Nc2ncnc3ccc(Br)cc23)c1  Cytochrome P450 2C19 (Homo sapiens)       active
10  C=CCOC(=O)C1=C(C)NC(SC)=C(C#N)C1c1cccs1 (stereo unspecified)  Cytochrome P450 2C19 (Homo sapiens)       active
11              CCNc1ncc2ncc(=O)n(C3CC3)c2n1  Cytochrome P450 2C19 (Homo sapiens)     inactive
12  O=C(O)[C@@H](O)[C@@H](O)[C@@H](O[C@H]1O[C@@H](CO)[C@@H](O)[C@@H](O)[C@@H]1O)[C@@H](O)CO  Cytochrome P450 2C19 (Homo sapiens)     inactive
13  Cc1nc(NS(=O)(=O)c2ccc(Br)cc2)c2c3c(sc2n1)CCC3  Cytochrome P450 2C19 (Homo sapiens)       active
14  Cc1nc(NS(=O)(=O)c2ccccc2C)c2c3c(sc2n1)CCC3  Cytochrome P450 2C19 (Homo sapiens)       active
15           Nc1nc(Br)c2ccccc2c1-c1ccc(F)cc1  Cytochrome P450 2C19 (Homo sapiens)       active
16   COc1cccc(-c2ccc3ncnc(NCc4cccnc4)c3c2)c1  Cytochrome P450 2C19 (Homo sapiens)       active
17          COCCNc1ncnc2ccc(-c3ccccc3OC)cc12  Cytochrome P450 2C19 (Homo sapiens)       active
18  C=CCOC(=O)C1=C(C)NC(SCC(=O)OCC)=C(C#N)C1c1ccc(C)cc1 (stereo unspecified)  Cytochrome P450 2C19 (Homo sapiens)       active
19  CN1CCN(c2ncc3nc(-c4cc(F)cc(F)c4)c(=O)n(C4CC4)c3n2)CC1  Cytochrome P450 2C19 (Homo sapiens)     inactive
20  Cc1cc(C)n(-c2nc(NCC(C)O)c3c4c(sc3n2)COC(C)(C)C4)n1 (stereo unspecified)  Cytochrome P450 2C19 (Homo sapiens)     inactive
21  CCOc1cc(CN2CCN(c3ccc(C(C)=O)cc3)CC2)ccc1OC  Cytochrome P450 2C19 (Homo sapiens)     inactive
22  CC(=O)c1c(C)[nH]c(C(=O)COc2ccc(C#N)cc2)c1C  Cytochrome P450 2C19 (Homo sapiens)       active
23    Cc1ccc(NC(=O)Nc2nc(-c3ccc(C)s3)cs2)cc1  Cytochrome P450 2C19 (Homo sapiens)       active
24       COCC(=O)N1CCC2(CC1)CCN(c1ncccn1)CC2  Cytochrome P450 2C19 (Homo sapiens)     inactive
25  CCN(C(=O)c1cnc(N2CCN(c3ncccn3)CC2)c2ccccc12)c1cccc(Cl)c1  Cytochrome P450 2C19 (Homo sapiens)       active
26         CCNc1ncc2ncc(=O)n(CCc3ccccc3)c2n1  Cytochrome P450 2C19 (Homo sapiens)       active
27       COCC(=O)N1CCC2(CCCN(c3ncccn3)C2)CC1  Cytochrome P450 2C19 (Homo sapiens)     inactive
28  CCOc1ccc(N(C(C)C(=O)N/N=C(\C)c2cccc(NC(=O)c3ccccc3)c2)S(C)(=O)=O)cc1 (stereo unspecified)  Cytochrome P450 2C19 (Homo sapiens)       active
29  COc1ccccc1C(c1nnnn1C(C)(C)C)N1CCCc2ccccc21 (stereo unspecified)  Cytochrome P450 2C19 (Homo sapiens)       active
30             C#CCn1c(=O)c2c(ncn2C)n(C)c1=O  Cytochrome P450 2C19 (Homo sapiens)     inactive
31  CC1(C)CC2(CC(c3cccs3)c3cc(Cl)c(O)cc3O2)NC(=S)N1 (stereo unspecified)  Cytochrome P450 2C19 (Homo sapiens)       active

====

Biological target: Cytochrome P450 2C19 (Homo sapiens) (UniProt P33261)
Assay: Cytochrome panel assay with activity outcomes
Conditions: recombinant CYP, pro-luciferin dealkylation, luminescence, p450-cyp2c19; series mostly up to 57.1 µM
The whole screen tested about 16,000 compounds, of which about 5,800 (36%) were called active. Not shown: some 23% with an inconclusive outcome. Calls come from the whole dose curve; as a rule, active = well fitted curve in the direction sought with a large enough effect; inconclusive = small, poorly fitted or top-dose-only effect, or effect the other way; inactive = no such curve, though single readings can be large or run the other way. Some of the results follow.
Labels: 1 (yes) = active, 0 (no) = inactive

> print(dat)
                                    compound  label.value
 1  COc1ccc(C2=CSC(/N=C/c3ccc(F)cc3)=NN2)cc1      1 (yes)
 2  CN1CCN(c2ncc3nc(-c4cccs4)c(=O)n(-c4ccccc4)c3n2)CC1       0 (no)
 3          CCCCc1nc(SCC(=O)Nc2ncccn2)n[nH]1       0 (no)
 4  C=CC1=C(C(=O)O)N2C(=O)[C@@H](NC(=O)/C(=N\OCC(=O)O)c3csc(N)n3)[C@@H]2SC1       0 (no)
 5  Cc1ccc(C(=O)O/N=C\c2ccc(N3CCCCC3)c([N+](=O)[O-])c2)cc1      1 (yes)
 6  O=C1C=C(Nc2ccc(Cl)cc2)CC(c2ccc(Cl)cc2)C1 (stereo not given)      1 (yes)
 7     Clc1ccc2[nH]cc(-c3nnnn3-c3ccccc3)c2c1      1 (yes)
 8       CCn1c(SCC(=O)OC)nc2sc3c(c2c1=O)CCC3      1 (yes)
 9              CN1C(=O)C[C@H](c2ccccc2)C1=O       0 (no)
10  COc1cc(/C=C(/C#N)c2nc3ccccc3[nH]2)ccc1OCC(=O)Nc1ccccc1C      1 (yes)
11       O=c1c(-c2cccs2)nc2cncnc2n1-c1ccccc1      1 (yes)
12  CCCC1C(=O)N(c2ccccc2)C1c1ccccc1 (stereo not given)      1 (yes)
13  Cc1ncc([N+](=O)[O-])n1CC(C)O (stereo not given)       0 (no)
14  COC(=O)C/C=C\[C@@H](C)[C@@H](/C=N\OC[C@@H]1O[C@H](c2ccccc2)C=C[C@@H]1Oc1ccc(OC)cc1)NS(=O)(=O)c1ccc(C)cc1      1 (yes)
15  COC(=O)CNC(c1ccccc1Cl)c1cc(Br)ccc1NC(=O)CCN1CCOCC1 (stereo not given)      1 (yes)
16             NC(N)=NC[C@@H]1COC2(CCCCC2)O1       0 (no)
17  CC1Cc2ccccc2N1C(=O)C1CCCCN1S(=O)(=O)c1ccccc1 (stereo not given)      1 (yes)
18  COc1cc(/C=C(/C#N)c2nc3ccccc3[nH]2)ccc1Oc1ncccc1[N+](=O)[O-]      1 (yes)
19  CCCNC(=O)OC[C@H]1O[C@@H](CCO/N=C\[C@@H](NS(=O)(=O)c2ccc(C)cc2)[C@H](C)/C=C\CC(=O)OC)C=C[C@@H]1Oc1ccc(OC)cc1      1 (yes)
20                    CCSc1nc2nc(C)cc(C)n2n1       0 (no)
